Target: human P2X2/3 receptors (Homo sapiens, UniProt P56373+Q9UBL9)
Construct: expressed in transfected cells; host or cells: human astrocytoma 1321N1 (1312N1 [sic])
Test: Intracellular calcium measurement, antagonist activity at human P2X2/3 receptors (hP2X23 1321N1), Fluo8
Type: cell-based
Settings: column 4); 1321N1 cells, human P2X2/3, Fluo8, agonist ATP at EC50; read-out: 4) hP2X2/3 IC50 [nM] (1321N1)
measured.property: IC50 (nM)

1. CC(C)N1Cc2c(n(CC(=O)Nc3ccc(F)cn3)c3cc(C4CCN(C(=O)C(F)F)CC4)nn3c2=O)C1=O; 7400
2. CC(C)N1Cc2c(n(CC(=O)Nc3ccc(F)cn3)c3cc(-c4ccccc4)nn3c2=O)C1=O; 2250
3. COC[C@@H](C)N1Cc2c(n(CC(=O)Nc3ccc(F)cn3)c3cc(C(C)C)nn3c2=O)C1=O; 8200

P = CC[C@@H](C)N1Cc2c(n(CC(=O)Nc3ccc(F)cn3)c3cc(C(F)(F)F)nn3c2=O)C1=O
Q = CC(C)N1Cc2c(n(CC(=O)Nc3ccc(F)cn3)c3cc(N(C)C)nn3c2=O)C1=O
R = COCCN1Cc2c(n(CC(=O)Nc3ccc(F)cn3)c3cc(CC(C)C)nn3c2=O)C1=O
S = O=C(Cn1c2c(c(=O)n3nc(C(=O)Nc4ccccc4F)cc13)CN(Cc1ccccn1)C2=O)Nc1ccc(F)cn1
Arrange by IC50, high to low. Write the labels in rank order as requested.
P, Q, R, S
(P: 11500 nM, Q: 6350 nM, R: 2600 nM, S: 1350 nM)

A = CC(C)N1Cc2c(n(CC(=O)Nc3ccc(F)cn3)c3cc(C4CCN(C(=O)OC(C)(C)C)CC4)nn3c2=O)C1=O
B = CC(C)NC(=O)Nc1cc2n(CC(=O)Nc3ccc(F)cn3)c3c(c(=O)n2n1)CN(C(C)C)C3=O
Which item exceeds the other in IC50, A or B ? // return label of chosen record
A

a = CC[C@H](C)N1Cc2c(n(CC(=O)Nc3ccc(Cl)cn3)c3cc(C(F)(F)F)nn3c2=O)C1=O
b = CCc1cc2n(CC(=O)Nc3ccc(F)cn3)c3c(c(=O)n2n1)CN(Cc1ccc(C)nc1)C3=O
c = CC(C)N1Cc2c(n(CC(=O)Nc3ccc(F)cn3)c3cc(C4CCOCC4)nn3c2=O)C1=O
Sort low-to-high on IC50, please. Write the labels in rank order as requested.
a, b, c

----------
Target: human P2X2/3 receptors (Homo sapiens, UniProt P56373+Q9UBL9)
Construct: expressed in transfected cells; host or cells: human astrocytoma 1321N1 (1312N1 [sic])
Assay: Intracellular calcium measurement, antagonist activity at human P2X2/3 receptors (hP2X23 1321N1), Fluo8
Assay type: cell-based
Conditions: column 4); 1321N1 cells, human P2X2/3, Fluo8, agonist ATP at EC50; read-out: 4) hP2X2/3 IC50 [nM] (1321N1)
Protocol: 3) And 4) Intracellular Calcium Measurement to Compare Antagonist Activity at Human P2X3 Receptors (hP2X3 1321N1) and at Human P2X2/3 Receptors (hP2X23 1321N1) The comparison of antagonistic activity at the P2X3 versus the P2X2/3 receptor of the compounds of the invention were performed by use of recombinant cell lines. […] The cytoplasmatic calcium transient is detected via the calcium sensitive dye Fluo8. The strength of Fluo8 fluorescence signal corresponds to the level of receptor activation. […]
measured.property: IC50 (nM)

1) COC[C@H](C)N1Cc2c(n(CC(=O)Nc3ccc(F)cn3)c3cc(N(C)C)nn3c2=O)C1=O; 11500
2) CCc1cc2n(CC(=O)Nc3ccc(F)cn3)c3c(c(=O)n2n1)CN(C1CCNC1)C3=O (single isomer, unassigned) [Example 277]; 7300

I = COC[C@H](C)N1Cc2c(n(CC(=O)Nc3ccc(F)cn3)c3cc(-c4ccncc4C)nn3c2=O)C1=O
II = CCc1cc2n(CC(=O)Nc3ccc(F)cn3)c3c(c(=O)n2n1)CN(CC1CCCO1)C3=O (racemic)
Please indicate which has the smaller reported IC50: I , or II . // return label of chosen record
I
(I: 1460 nM, II: 9050 nM)

----------
Molecular target: human P2X2/3 receptors (Homo sapiens, UniProt P56373+Q9UBL9)
Construct: expressed in transfected cells; host or cells: human astrocytoma 1321N1 (1312N1 [sic])
Test: Intracellular calcium measurement, antagonist activity at human P2X2/3 receptors (hP2X23 1321N1), Fluo8
Format: cell-based
Details: column 4); 1321N1 cells, human P2X2/3, Fluo8, agonist ATP at EC50; read-out: 4) hP2X2/3 IC50 [nM] (1321N1)
measured.property: IC50 (nM)

Reference set, count: 2
1) Cc1cc2n(CC(=O)Nc3ccc(F)cn3)c3c(c(=O)n2n1)CN([C@H](C)C1CC1)C3=O [Example 55]; 10800
2) CCc1cc2n(CC(=O)Nc3ccc(F)cn3)c3c(c(=O)n2n1)CN(CC1CCN(C(=O)OC(C)(C)C)C1)C3=O (stereo not drawn) [Example 80]; 1950

I = CC(C)N1Cc2c(n(CC(=O)Nc3ccc(F)cn3)c3cc(NC(=O)COCc4ccccc4)nn3c2=O)C1=O [Example 287]
II = Cc1ccc(NC(=O)Cn2c3c(c(=O)n4nc(C5CCOCC5)cc24)CN(C(C)C)C3=O)nc1 [Example 59]
Which item exceeds the other in IC50, I or II ? // return label of chosen record
II

----------
Target: human P2X3 receptor (Homo sapiens)
Assay: Intracellular calcium measurement to assess antagonist activity at human P2X3 receptors (hP2X3 CHO), photina luminescence
Assay type: cell-based
Set-up: expressed in transfected cells; host or cells: Chinese hamster ovary (CHO) cells
Details: column 2), CHO cells, agonist α,β-methylene-ATP at EC50
measured.property: IC50 (nM)

1 = Cc1cc2n(CC(=O)Nc3ccc(F)cn3)c3c(c(=O)n2n1)CN(CC1CCO1)C3=O (stereo not shown)
2 = CC(C)N1Cc2c(n(CC(=O)Nc3ccc(F)cn3)c3cc(C(=O)Nc4ccon4)nn3c2=O)C1=O
Which item exceeds the other in IC50, 1 or 2 ? // return label of chosen record
1

I = CC(C)N1Cc2c(n(CC(=O)Nc3ccc(F)cn3)c3cc(C4=CCN(C(=O)OC(C)(C)C)CC4)nn3c2=O)C1=O
II = CCc1cc2n(CC(=O)Nc3ccc(F)cn3)c3c(c(=O)n2n1)CN(CC1CCN(C(=O)OC(C)(C)C)C1)C3=O (stereo not shown)
Please indicate which has the smaller reported IC50: I , or II . // return label of chosen record
I

----------
Molecular target: human P2X3 receptor (Homo sapiens, UniProt P56373)
Sequence (P56373 1-397): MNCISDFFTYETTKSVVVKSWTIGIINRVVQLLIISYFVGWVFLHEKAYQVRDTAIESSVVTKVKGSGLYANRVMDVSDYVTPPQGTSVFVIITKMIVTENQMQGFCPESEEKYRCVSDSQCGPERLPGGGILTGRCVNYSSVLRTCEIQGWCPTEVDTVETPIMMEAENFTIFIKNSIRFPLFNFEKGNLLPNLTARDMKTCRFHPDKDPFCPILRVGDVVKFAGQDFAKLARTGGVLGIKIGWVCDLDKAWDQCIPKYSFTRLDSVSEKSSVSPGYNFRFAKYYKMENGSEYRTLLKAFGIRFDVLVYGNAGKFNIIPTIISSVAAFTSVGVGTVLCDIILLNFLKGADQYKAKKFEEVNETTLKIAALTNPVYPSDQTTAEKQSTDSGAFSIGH
Experiment: Intracellular calcium measurement, antagonist activity at human P2X3 receptors (hP2X3 1321N1), Fluo8
Type: cell-based
Parameters: expressed in transfected cells; host or cells: human astrocytoma 1321N1 (1312N1 [sic])
Details: column 3); 1321N1 cells, human P2X3, Fluo8, agonist ATP at EC50
measured.property: IC50 (nM)

Reference set, count: 2
1. CCc1cc2n(CC(=O)Nc3ccc(Br)cn3)c3c(c(=O)n2n1)CN(C(C)C)C3=O; 217
2. COC[C@H](C)N1Cc2c(n(CC(=O)Nc3ccc(F)cn3)c3cc(C(=O)NCC(F)F)nn3c2=O)C1=O; 34

I = Cc1ccc(-c2cc3n(CC(=O)Nc4ccc(F)cn4)c4c(c(=O)n3n2)CN(C(C)C)C4=O)c(C)n1
II = CC(C)N1Cc2c(n(CC(=O)Nc3ccc(F)cn3)c3cc(NCC(F)F)nn3c2=O)C1=O
Which item exceeds the other in IC50, I or II ? // return label of chosen record
II

----------
Target: human P2X2/3 receptors (Homo sapiens, UniProt P56373+Q9UBL9)
Construct: expressed in transfected cells; host or cells: human astrocytoma 1321N1 (1312N1 [sic])
Assay: Intracellular calcium measurement, antagonist activity at human P2X2/3 receptors (hP2X23 1321N1), Fluo8
Type: cell-based
Conditions: column 4); 1321N1 cells, human P2X2/3, Fluo8, agonist ATP at EC50; read-out: 4) hP2X2/3 IC50 [nM] (1321N1)
measured.property: IC50 (nM)

Reference set, count: 2
1) CC(C)N1Cc2c(n(CC(=O)Nc3ccc(Cl)cn3)c3cc(C(F)(F)F)nn3c2=O)C1=O; 4150
2) COCC(=O)Nc1cc2n(CC(=O)Nc3ccc(F)cn3)c3c(c(=O)n2n1)CN(C(C)C)C3=O; 12000

I = CC(C)(O)CN1Cc2c(n(CC(=O)Nc3ccc(F)cn3)c3cc(C(C)(C)C)nn3c2=O)C1=O
II = CC(C)N1Cc2c(n(CC(=O)Nc3ccc(F)cn3)c3cc(C4=CCN(C(=O)OC(C)(C)C)CC4)nn3c2=O)C1=O
Please indicate which has the smaller reported IC50: I , or II . // return label of chosen record
II
(II: 6600 nM, I: 12000 nM)
